We begin with a simple list: items and their reported % growth inhibition HEK293.
Tested on: HEK293
Details: human, 48 h, 100 µM
The reply should be a number in %, with the unit left off.

Completed entries (count: 3):
>>> recorded_value("Cc1ccc(NC(=O)C(CC(C)C)n2nccn2)cc1 (stereo not shown) [Compound 3m]")
21
>>> recorded_value("Cc1ccc(NC(=O)C(CC(C)C)C(=O)NO)cc1 (stereo not shown) [Compound 3g]")
12
>>> recorded_value("CC(C)CC(C(=O)Nc1ccc(C(F)(F)F)cc1)P(=O)(O)O (stereo not shown) [Compound 4b]")
11

Please examine the following record next.
Give the measured % growth inhibition HEK293 of CC(C)CC(C(=O)Nc1ccc(C#N)cc1)P(=O)(O)O (stereo not shown) [Compound 4k] .
15

###

Catalogue of compounds with associated IC50
Target: LasB (Pseudomonas aeruginosa)
Construct: made in house
Experiment: biochemical
Format: biochemical
Settings: LasB IC50 in presence of 1% pulmonary surfactant, 1% pulmonary surfactant
Enter your answer as a number in µM; do not include the unit.

>>> recorded_value("Cc1ccc(NC(=O)C(CC(C)C)P(=O)(O)O)cc1 (stereo not drawn) [Compound 4a]")
0.123
>>> recorded_value("CC(C)CC(C(=O)Nc1ccc(C(F)(F)F)cc1)P(=O)(O)O (stereo not drawn) [Compound 4b]")
0.076

Item CC(C)CC(C(=O)Nc1ccc(C#N)cc1)P(=O)(O)O (stereo not drawn) [Compound 4k] has what recorded IC50?
0.085

###

Experiment: Microsomal stability, mouse liver microsomes
Format: in vitro ADME
Conditions: C57BL6, mouse, pooled liver microsomes
recorded_endpoint: microsomal CLint

Please review the following examples before continuing.
>>> recorded_value("CC(C)CC(C(=O)Nc1ccc(F)cc1)P(=O)(O)O (stereo not drawn) [Compound 4h]")
"< 11.6 µL/min/mg"
>>> recorded_value("Cc1ccc(NC(=O)C(CC(C)C)P(=O)(O)O)cc1 (stereo not drawn) [Compound 4a]")
"< 11.6 µL/min/mg"

# evaluate next
Name the recorded microsomal CLint for CC(C)CC(C(=O)Nc1ccc(C(F)(F)F)cc1)P(=O)(O)O (stereo not drawn) [Compound 4b] .
< 11.6 µL/min/mg

###

Target: ColH-PD (Hathewaya histolytica, UniProt Q46085)
Sequence (Q46085 331-721 limits assumed): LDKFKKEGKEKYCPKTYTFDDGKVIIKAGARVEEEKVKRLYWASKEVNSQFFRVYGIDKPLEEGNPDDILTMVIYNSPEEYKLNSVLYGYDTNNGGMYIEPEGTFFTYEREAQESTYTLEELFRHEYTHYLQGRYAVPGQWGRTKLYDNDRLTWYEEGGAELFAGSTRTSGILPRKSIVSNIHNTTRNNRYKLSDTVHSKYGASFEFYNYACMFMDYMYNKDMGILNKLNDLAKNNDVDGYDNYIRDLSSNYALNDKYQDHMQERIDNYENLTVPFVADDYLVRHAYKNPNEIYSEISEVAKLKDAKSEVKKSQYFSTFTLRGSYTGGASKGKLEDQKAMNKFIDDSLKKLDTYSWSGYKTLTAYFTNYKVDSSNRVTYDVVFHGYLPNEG
recorded_endpoint: Ki (nM)
Your answer is read as nM, so omit the unit and give the number.

Look up Ki: CC(=O)c1ccc(NC(=O)C(CC(C)C)P(=O)(O)O)cc1 (stereo not shown)
320

###

Assay: in vivo
Settings: male, CD-1, mouse, plasma, inhaled or intranasal; mice, nebulization 10 mg/kg
recorded_endpoint: MRT (h)
Write the number in h without appending the unit.

# MRT lookup, item CC(C)CC(C(=O)Nc1ccc(C(F)(F)F)cc1)P(=O)(O)O (stereo not shown) [Compound 4b]
6.8

###

Target: LasB (Pseudomonas aeruginosa, UniProt Q02RJ6)
Construct: made in house
Sequence (Q02RJ6 198-498): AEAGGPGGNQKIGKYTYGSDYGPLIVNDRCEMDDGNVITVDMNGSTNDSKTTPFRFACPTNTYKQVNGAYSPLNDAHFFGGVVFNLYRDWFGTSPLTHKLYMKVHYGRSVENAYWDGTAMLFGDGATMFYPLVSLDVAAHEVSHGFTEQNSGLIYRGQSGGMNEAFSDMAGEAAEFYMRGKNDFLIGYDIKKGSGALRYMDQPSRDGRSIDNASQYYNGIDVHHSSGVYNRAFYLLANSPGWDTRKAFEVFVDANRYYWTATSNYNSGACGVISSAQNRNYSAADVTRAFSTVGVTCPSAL
Test: biochemical
Assay type: biochemical
Details: read-out: % inh LasB @100 µM
Listed molecules paired with reported inhibition at 100 µM

>>> recorded_value("Cc1ccc(NC(=O)C(CC(C)C)C(=O)O)cc1 (stereo not shown)")
"46%"
>>> recorded_value("Cc1ccc(NC(=O)C(CC(C)C)c2nn[nH]n2)cc1 (stereo not shown)")
"< 10%"
>>> recorded_value("Cc1ccc(NC(=O)C(CC(C)C)n2ccnc2)cc1 (stereo not shown)")
"14%"
>>> recorded_value("Cc1ccc(NC(=O)C(CC(C)C)n2cncn2)cc1 (stereo not shown)")
"< 10%"
>>> recorded_value("CCOC(=O)C(CC(C)C)C(=O)Nc1ccc(C)cc1 (stereo not shown)")
"< 10%"
>>> recorded_value("Cc1ccc(NC(=O)[C@H](CC(C)C)NC(=O)OC(C)(C)C)cc1")
"< 10%"

# lookup: inhibition at 100 µM of Cc1ccc(NC(=O)[C@@H](N)CC(C)C)cc1
< 10%

The reported numbers originate from paper PMC10755728.
